Hey, just so you know, these numbers are from paper PMC5540273.

- Tested on: RSK4(Kin.Dom.2-C-terminal);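 further: kd values determined as follow-up on hits from a single-replicate KINOMEscan panel screen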
- Construct: gene RPS6KA6
property-label: Kd

Prompt: For the molecule Fc1cc(Cl)ccc1Nc1ccnc2cc(-c3ccc(CN4CCCCC4)o3)ccc12 [GW560116] , what Kd is on record?
Completion: 670 nM

---

- System: SYK;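 further: KINOMEscan kinase panel screen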
- assay-setup: concentration: 1 μM, replicates: in singlicate; n = 1
The label Satisfied is reserved for %Inh strictly under 20%; Not satisfied covers values equal to or above it.

compound	target-entity	label-class
Cc1nnc(-c2ccc3occ(-c4ccc(S(C)=O)cc4)c3c2)[nH]1 (stereo not drawn)	SYK	Satisfied
COc1ccc(Nc2nccc(NCCNC(=O)Nc3ccccc3F)n2)cc1	SYK	Not satisfied
O=C1NC(=O)C(N2CCc3ccccc32)=C1c1ccccc1Cl	SYK	Not satisfied
Cc1c(Cn2ccn3c(=O)cc(N4CCOCC4)nc23)cccc1C(F)(F)F	SYK	Satisfied
Nc1nc(-c2nccs2)c(-c2ccnc3ccccc23)s1	SYK	Not satisfied

Prompt: I wonder whether `Cc1cc(N2Cc3ccccc3C2)nc(Nc2ccc(S(=O)(=O)N3CCOCC3)cc2)n1.Cl` has %Inh below 20%. Can you tell?
Completion: Not satisfied

Prompt: // same read-out, input: `Cc1cccc(-c2nc(-c3ccc(S(C)(=O)=O)cc3)sc2-c2ccnc(NCCc3ccccc3)c2)c1`
Completion: Satisfied

Prompt: // same read-out, input: `COc1cccc(-c2cc(-c3c[nH]nc3-c3ccccn3)ccn2)c1`
Completion: Satisfied

Prompt: // same read-out, input: COc1cc2ncn(-c3cc(OCC4CCCO4)c(C(N)=O)s3)c2cc1OC (stereo not drawn)
Completion: Satisfied
